Source: paper PMC11630628

Biological target: T1, MIK2 ectodomain (MIK2^LRR, residues 45-707) fused with a 6x His-MBP tag (Arabidopsis thaliana, UniProt Q8VZG8 45-707)
T1 construct: ectodomain residues 45-707, without the putative N-terminal signal peptide; Cloned into pET41 with a 6x His-MBP tag; no cleavage of the tag is told; also called His-MBP-tagged MIK2^LRR; ectodomain of MIK2; source: E. coli BL21, purified (Mag-Beads His-Tag Protein Purification Kit)
T1 sequence (looked up): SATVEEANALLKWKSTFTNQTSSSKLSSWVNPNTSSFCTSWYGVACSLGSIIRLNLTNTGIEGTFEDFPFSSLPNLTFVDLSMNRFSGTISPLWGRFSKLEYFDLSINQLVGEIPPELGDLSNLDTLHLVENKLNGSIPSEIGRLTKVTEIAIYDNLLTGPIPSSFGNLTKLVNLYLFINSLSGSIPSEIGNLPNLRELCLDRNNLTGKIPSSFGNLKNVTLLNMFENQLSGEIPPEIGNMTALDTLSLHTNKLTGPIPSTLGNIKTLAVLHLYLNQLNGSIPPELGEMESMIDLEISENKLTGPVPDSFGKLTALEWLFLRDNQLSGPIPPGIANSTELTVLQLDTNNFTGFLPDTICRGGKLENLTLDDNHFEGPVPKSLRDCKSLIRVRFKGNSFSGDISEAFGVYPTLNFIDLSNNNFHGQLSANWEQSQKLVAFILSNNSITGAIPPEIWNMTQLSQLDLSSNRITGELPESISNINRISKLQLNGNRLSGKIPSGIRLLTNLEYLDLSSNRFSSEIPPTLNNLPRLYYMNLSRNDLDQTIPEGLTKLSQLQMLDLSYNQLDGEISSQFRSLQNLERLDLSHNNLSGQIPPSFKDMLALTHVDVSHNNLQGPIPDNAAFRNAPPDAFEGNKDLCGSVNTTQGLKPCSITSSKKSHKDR
Experiment: MST; Monolith NT.115; 0.05 μM 5-FAM-labelled peptide, MIK2^LRR diluted from 20 μM in ddH2O, 10 min at room temperature; 20% LED power, 40% MST power
Settings: both partners purified
Ends that are not written are not given here. * marks the point of attachment. 5FAM = O=C1OC2(c3ccc(O)cc3Oc3cc(O)ccc32)c2ccc(C(=O)*)cc21
MEASURED PROPERTY: pKd
pKd is a log-scale quantity: -log10 of the concentration expressed in molar.

1) 5FAM-PNGDIFTGPSGSGHGGGR [SCOOP10 peptide labeled with FAM at the N-terminus (5'-FAM-SCOOP10)]	7.87

Shift focus to the following entry.
## Task Given the entry 5FAM-PVRSSQSSQAGGR [SCOOP12 peptide labeled with 5-FAM at the N terminus (FAM-SCOOP12)] , report its measured pKd.
## Result 7.66
